Origin of measurements: patent US20250197451A1

# System Tested: T1, biotin-labelled EZH2 protein (UniProt Q15910 1-746, limits assumed, biotin label (EZ-link NHS-PEO4-Biotinylation kit))
# T1 construct: Probe in solution (1 ug/ml) on the KDM2B peptide microarray; also called NHS-PEO4-Biotinylation-labelled EZH2 protein; recombinant protein
# T1 sequence (Q15910 whole entry): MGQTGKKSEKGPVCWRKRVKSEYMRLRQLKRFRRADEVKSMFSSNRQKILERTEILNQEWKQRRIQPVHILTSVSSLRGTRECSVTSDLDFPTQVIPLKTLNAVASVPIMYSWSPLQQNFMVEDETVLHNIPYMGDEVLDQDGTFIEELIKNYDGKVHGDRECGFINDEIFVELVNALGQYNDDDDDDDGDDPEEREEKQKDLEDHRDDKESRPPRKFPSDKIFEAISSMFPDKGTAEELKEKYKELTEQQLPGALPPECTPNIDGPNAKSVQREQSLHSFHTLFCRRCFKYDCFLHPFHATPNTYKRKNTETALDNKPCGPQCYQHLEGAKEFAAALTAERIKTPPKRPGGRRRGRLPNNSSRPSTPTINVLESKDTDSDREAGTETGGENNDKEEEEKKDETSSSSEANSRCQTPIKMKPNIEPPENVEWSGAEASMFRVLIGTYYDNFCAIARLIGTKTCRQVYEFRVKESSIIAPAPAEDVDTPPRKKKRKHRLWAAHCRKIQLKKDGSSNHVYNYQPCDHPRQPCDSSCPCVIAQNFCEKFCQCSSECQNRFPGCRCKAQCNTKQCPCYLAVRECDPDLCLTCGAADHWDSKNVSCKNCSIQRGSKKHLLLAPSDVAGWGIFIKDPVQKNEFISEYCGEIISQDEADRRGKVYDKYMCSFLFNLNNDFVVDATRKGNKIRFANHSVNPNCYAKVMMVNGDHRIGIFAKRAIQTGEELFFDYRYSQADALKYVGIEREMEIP
# Experimental Protocol: KDM2B peptide array probed with biotin-EZH2 1 ug/ml, SA-HRP/ECL;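 further: 100% is the highest background-corrected spot optical density on the membrane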;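 further: Background-corrected optical density of each spot on the membrane, given as percent of the brightest spot (100%), color developed for 5 minutes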
Measured Parameter: Intensity (%)
Give the number; % is assumed, so skip it.

Binder | Reported Result
SVQFGQVEEKLLQKL [peptide 265] | 2.09
PASAVKLAANRTTAG [peptide 119] | 0
LWTRIDLNHCKSITP [peptide 221] | 4.09
EDRMALANKPLRRFK [peptide 176] | 0
EGVVNDELPNCWECP [peptide 142] | 100

Task item: Can you share its Intensity (%)? I mean this binder: HSKKVPPDGLLRRKS [peptide 157]
Reply: 18.4

Task item: Next entry: LRRKSDDVHLRKKRK [peptide 159]
Reply: 0

Task item: Next entry: QEPEDELPEAPPKTR [peptide 179]
Reply: 0.39

Task item: Next entry: EEEACDQQPQEEEEK [peptide 83]
Reply: 0
